tested.system: Androgen receptor (Homo sapiens, UniProt P10275)
Sequence (P10275 whole entry): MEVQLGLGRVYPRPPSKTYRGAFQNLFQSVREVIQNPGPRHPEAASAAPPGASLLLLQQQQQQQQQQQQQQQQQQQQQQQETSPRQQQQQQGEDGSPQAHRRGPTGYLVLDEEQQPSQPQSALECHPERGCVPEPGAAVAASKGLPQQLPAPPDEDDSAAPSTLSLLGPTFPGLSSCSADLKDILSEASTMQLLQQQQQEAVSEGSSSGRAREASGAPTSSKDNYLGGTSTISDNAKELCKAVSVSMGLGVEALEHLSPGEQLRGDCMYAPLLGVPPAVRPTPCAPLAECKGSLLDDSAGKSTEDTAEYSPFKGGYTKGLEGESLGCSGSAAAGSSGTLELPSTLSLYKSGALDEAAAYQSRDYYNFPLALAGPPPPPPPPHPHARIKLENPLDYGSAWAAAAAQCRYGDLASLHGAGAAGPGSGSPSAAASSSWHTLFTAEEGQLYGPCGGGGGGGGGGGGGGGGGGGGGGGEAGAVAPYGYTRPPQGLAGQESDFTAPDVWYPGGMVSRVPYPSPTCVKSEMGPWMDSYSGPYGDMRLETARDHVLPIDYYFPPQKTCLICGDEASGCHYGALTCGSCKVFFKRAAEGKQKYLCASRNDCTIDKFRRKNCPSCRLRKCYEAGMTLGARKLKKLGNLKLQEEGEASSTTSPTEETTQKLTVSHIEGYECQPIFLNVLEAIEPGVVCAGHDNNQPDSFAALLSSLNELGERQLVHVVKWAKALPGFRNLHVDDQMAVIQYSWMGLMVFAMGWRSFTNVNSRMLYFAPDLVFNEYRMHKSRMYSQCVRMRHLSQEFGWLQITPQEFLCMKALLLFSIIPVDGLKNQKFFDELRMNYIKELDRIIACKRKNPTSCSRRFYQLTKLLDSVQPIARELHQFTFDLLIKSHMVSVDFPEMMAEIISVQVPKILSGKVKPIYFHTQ
pIC50: recorded values
Kindly note that pIC50 refers to -log10 of the concentration in mol/L and answer with the value alone.

molecule="CC(c1ccccc1)N(C)c1cc(C(F)(F)F)c(C#N)cn1 (configuration not stated)" tested_system="Androgen receptor (Homo sapiens, UniProt P10275)" measured_value=6.64
molecule=CC1CCN(c2cc(C(F)(F)F)c(C#N)cn2)CC1 tested_system="Androgen receptor (Homo sapiens, UniProt P10275)" measured_value=6.87
molecule=N#Cc1cnc(N2CCCCC2)cc1C(F)(F)F tested_system="Androgen receptor (Homo sapiens, UniProt P10275)" measured_value=6.37
molecule="N#Cc1cnc(N2CCC3CCCCC3C2)cc1C(F)(F)F (configuration not stated)" tested_system="Androgen receptor (Homo sapiens, UniProt P10275)" measured_value=6.59

## Input Item: C[C@H](c1ccccc1)N(C)c1cc(C(F)(F)F)c(C#N)cn1 Test system: Androgen receptor (Homo sapiens, UniProt P10275) Read-out: pIC50 Value: ?
## Output 7.35

The origin of these recorded values is ChEMBL document CHEMBL1139813.
